Target: rat Nav1.2 (rNav1.2) (Rattus norvegicus)
Construct: expressed in transfected cells
Sequence (P04775 whole entry): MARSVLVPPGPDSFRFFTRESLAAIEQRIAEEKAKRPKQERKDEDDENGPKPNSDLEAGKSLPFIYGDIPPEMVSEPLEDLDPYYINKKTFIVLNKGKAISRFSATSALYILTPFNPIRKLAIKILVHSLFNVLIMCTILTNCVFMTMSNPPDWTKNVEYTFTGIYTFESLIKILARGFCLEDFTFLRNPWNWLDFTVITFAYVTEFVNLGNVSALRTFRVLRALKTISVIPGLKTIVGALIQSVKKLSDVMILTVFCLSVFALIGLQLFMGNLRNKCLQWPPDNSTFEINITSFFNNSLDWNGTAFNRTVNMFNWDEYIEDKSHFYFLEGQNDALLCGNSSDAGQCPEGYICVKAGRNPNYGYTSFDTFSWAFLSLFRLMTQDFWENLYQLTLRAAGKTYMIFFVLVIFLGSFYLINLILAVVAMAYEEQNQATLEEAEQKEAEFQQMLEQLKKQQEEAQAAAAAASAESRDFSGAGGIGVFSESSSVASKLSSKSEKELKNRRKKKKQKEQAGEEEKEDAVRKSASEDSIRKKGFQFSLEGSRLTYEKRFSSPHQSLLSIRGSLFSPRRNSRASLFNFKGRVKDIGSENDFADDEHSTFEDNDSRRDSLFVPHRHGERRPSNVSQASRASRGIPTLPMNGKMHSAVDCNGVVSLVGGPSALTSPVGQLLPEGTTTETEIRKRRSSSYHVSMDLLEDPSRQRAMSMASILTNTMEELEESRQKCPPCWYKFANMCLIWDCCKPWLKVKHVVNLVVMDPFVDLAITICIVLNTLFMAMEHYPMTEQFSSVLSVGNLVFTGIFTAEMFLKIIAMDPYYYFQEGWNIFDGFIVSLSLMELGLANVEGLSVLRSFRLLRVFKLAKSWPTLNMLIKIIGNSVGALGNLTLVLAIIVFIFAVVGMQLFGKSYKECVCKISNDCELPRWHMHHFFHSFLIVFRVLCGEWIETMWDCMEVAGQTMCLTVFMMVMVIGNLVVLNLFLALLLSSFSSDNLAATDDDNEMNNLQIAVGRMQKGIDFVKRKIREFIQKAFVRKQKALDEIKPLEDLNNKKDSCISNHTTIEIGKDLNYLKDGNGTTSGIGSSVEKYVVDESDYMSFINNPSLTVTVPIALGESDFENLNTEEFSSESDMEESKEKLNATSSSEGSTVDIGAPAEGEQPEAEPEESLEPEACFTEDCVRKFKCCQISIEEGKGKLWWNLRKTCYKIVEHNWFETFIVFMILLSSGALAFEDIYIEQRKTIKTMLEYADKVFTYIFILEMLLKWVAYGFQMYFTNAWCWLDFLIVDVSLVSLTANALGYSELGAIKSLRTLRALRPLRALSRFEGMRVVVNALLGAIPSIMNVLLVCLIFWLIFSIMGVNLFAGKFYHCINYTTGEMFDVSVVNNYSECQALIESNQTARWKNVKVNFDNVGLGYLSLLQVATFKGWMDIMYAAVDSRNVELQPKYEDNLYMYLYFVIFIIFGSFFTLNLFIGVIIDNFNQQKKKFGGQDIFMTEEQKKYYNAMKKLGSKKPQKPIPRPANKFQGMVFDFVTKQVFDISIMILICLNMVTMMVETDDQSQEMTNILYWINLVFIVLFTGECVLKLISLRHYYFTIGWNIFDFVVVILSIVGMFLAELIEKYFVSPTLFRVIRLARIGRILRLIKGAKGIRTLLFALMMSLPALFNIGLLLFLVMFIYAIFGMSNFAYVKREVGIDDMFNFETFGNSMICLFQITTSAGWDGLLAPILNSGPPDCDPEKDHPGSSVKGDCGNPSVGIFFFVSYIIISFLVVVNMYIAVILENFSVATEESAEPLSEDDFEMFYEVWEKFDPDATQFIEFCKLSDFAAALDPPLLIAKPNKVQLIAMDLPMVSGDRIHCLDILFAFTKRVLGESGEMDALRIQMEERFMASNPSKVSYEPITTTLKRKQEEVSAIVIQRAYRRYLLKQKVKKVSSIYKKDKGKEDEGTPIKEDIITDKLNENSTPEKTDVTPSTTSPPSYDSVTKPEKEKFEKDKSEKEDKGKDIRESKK
Assay: rNav1.2 slow inactivation block, automated patchclamp
Assay type: cell-based
Details: HEK 293F cells stably expressing rNav1.2
Recorded IC50 by entry
Give the value in nM but do not write nM after it.

INSERT INTO measurements (compound, subject_of_test, quantity_kind, recorded_result) VALUES
  ('O=C(NCc1cc(F)c(Oc2cc(C(F)(F)F)cc(C(F)(F)F)c2)cc1F)c1ncns1 [Compound 17]', 'rat Nav1.2 (rNav1.2) (Rattus norvegicus)', 'IC50', 18700),
  ('CN(Cc1cccc(-c2cc(C(F)(F)F)cc(C(F)(F)F)c2)c1)C(=O)[C@@H]1CCCN1 [Compound 58]', 'rat Nav1.2 (rNav1.2) (Rattus norvegicus)', 'IC50', 2750),
  ('O=C(NCc1cccc(-c2cc(C(F)(F)F)cc(C(F)(F)F)c2)c1)C1CCCC1 [Compound 56]', 'rat Nav1.2 (rNav1.2) (Rattus norvegicus)', 'IC50', 5850),
  ('O=C(NCc1cccc(-c2cc(C(F)(F)F)cc(C(F)(F)F)c2)c1)[C@@H]1CCCN1S(=O)(=O)Nc1ccccc1 [Compound 59]', 'rat Nav1.2 (rNav1.2) (Rattus norvegicus)', 'IC50', 8730),
  ('O=C(NCc1cc(F)c(Oc2cc(C(F)(F)F)cc(C(F)(F)F)c2)cc1F)c1nncs1 [Compound 19]', 'rat Nav1.2 (rNav1.2) (Rattus norvegicus)', 'IC50', 5660);

Could you now look at the following compound, please?
Exam item: Tell me the measured IC50 of O=C(NCc1cc(-c2cc(C(F)(F)F)cc(C(F)(F)F)c2)cc(C(F)(F)F)c1)[C@H]1CCCN1 [Compound 55] , please.
Marked response: 2580
